- Experiment Description: NCI Yeast Anticancer Drug Screen. Data for the mlh1 rad18 strain (AID 175)
- Condition Parameters: S. cerevisiae mlh1 rad18 strain growth inhibition; at 50.0 µM; hits give high values
Compounds without any hit were thinned out: in the full panel of roughly 79,000, 15% have a hit.
Categorized via growth inhibition: 0: < -10%; 1: ≥ -10% and < 10%; 2: ≥ 10%

(Q) Category lookup for the compound COc1ccc(C(CCl)(CCl)c2ccc(OC)c(N)c2)cc1N
(A) 2

(Q) Dear colleague, I would appreciate it if you could identify the bin for CCC(=O)N/N=C/C=N/NC(=O)c1ccncc1 and reply at your convenience.
(A) 1

(Q) The entry to classify is Cc1nnc(SCC2=C(C(=O)O)N3C(=O)C(NC(=O)Cn4cnnn4)C3SC2)s1 (configuration not stated) ; which class holds it?
(A) 2

(Q) Field: class (growth inhibition) — entry: CCOc1ccc(N=c2ssc(SC)c2-c2ccccc2)cc1
(A) 2

(Q) Hi, small favor: classify OCNC(=S)c1c(Cl)cccc1Cl by its growth inhibition when you get a moment.
(A) 1

(Q) Which class is correct for the following compound? O=[N+]([O-])c1cccc(C=Nc2cccc(C(F)(F)F)c2)c1
(A) 0

(Q) Bin? Nc1ccc2ccc(N)cc2c1
(A) 0

(Q) # bin lookup: classify COc1cc([C@H]2OC[C@@H]3C(c4cc(OC)c5c(c4)OCO5)OC[C@H]23)cc(OC)c1OC (some centres not stated) by its growth inhibition
(A) 0

(Q) Just checking, what class would you give c1ccc(-c2cccc3ccccc23)cc1 here?
(A) 2

(Q) Exercise: read the entry CCCCCCCCCCCCOc1ccccc1 and state which class it falls under.
(A) 1

(Q) State the class of the compound shown: CC(=O)NS(=O)(=O)c1ccc2sc(C)nc2c1
(A) 0

(Q) Lab log: CCCN1CCc2cc(OC)c(OC)cc2C1Cc1ccc(OC)c(OC)c1 (configuration not stated) — assign growth inhibition category
(A) 1

====

So I've got a bunch of compounds here, and I need their growth inhibition values.
- Experiment Description: NCI Yeast Anticancer Drug Screen. Data for the mec2-1 strain (AID 157)
- Condition Parameters: S. cerevisiae mec2-1 strain, at 50.0 µM, hits give high values
About 79,000 compounds went through this panel and 15% of them were active in at least one assay; those are over-represented in the sample as a whole.
# unit: % | format: bare number

(Q) What growth inhibition value was documented for this compound, Cc1ccc(S(=O)(=O)NCN2C(=O)c3ccccc3C2=O)cc1 ?
(A) -3.85

(Q) Report growth inhibition for O=C(CC(CC(=O)c1ccccc1)c1ccco1)c1ccccc1 please.
(A) -17.2

(Q) Item CCCN(CCC)CCC(=O)OCC has what recorded growth inhibition?
(A) -29.2

(Q) Can you share its growth inhibition? I mean this compound: COC(=O)C(C)CN1CC(C)OC(C)C1 (configuration not stated)
(A) -26.2

(Q) // query growth inhibition value for entry CCCCCCC(C/C=C\CCCCCCCC(=O)OC)OC(C)=O (configuration not stated)
(A) -16.7

(Q) What value of growth inhibition has been reported for the following compound? O=C1Nc2ccccc2/C1=N/N=C/c1cc(Cl)cc(Cl)c1O
(A) 9.4

(Q) What value of measured growth inhibition is listed for NC1N=C(c2ccc(Cl)cc2)C2=C(N1)c1ccccc1CC2 (configuration not stated) ?
(A) 0.9

(Q) Fill blank: measured growth inhibition of the compound C(=C/c1ccc(/C=C/c2ccccc2)cc1)/c1ccccc1 is ____.
(A) -13.9

(Q) Item under review: S=C1SCN(Cc2ccccc2)CN1Cc1ccccc1 . Reported growth inhibition?
(A) -26.1

(Q) What value of measured growth inhibition is listed for COc1ccc(-c2coc3c4c(ccc3c2=O)OCO4)cc1OC ?
(A) -13.4

(Q) Which growth inhibition is listed for N#Cc1nc(-c2cccc(-c3nc(C#N)c(N)o3)n2)oc1N ?
(A) 13.7

(Q) Please report the recorded growth inhibition for ClCCCC1(CCCCl)OCCO1 .
(A) -25.1

====

- Experiment Description: NCI Yeast Anticancer Drug Screen. Data for the cln2 rad14 strain (AID 165);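 also: 0% = growth equal to vehicle treated cultures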
- Condition Parameters: S. cerevisiae cln2 rad14 strain, at 50.0 µM, hits give high values
Compounds without any hit were thinned out: in the full panel of roughly 79,000, 15% have a hit. The source made the active and inactive calls. Rule as the data show it: active = growth inhibition above about 70%; inactive = the rest.
Value Kind: growth inhibition

(Q) # get_value(readout='growth inhibition', item= Cc1ccc(/C=N/Nc2nc3ccccc3s2)s1 )
(A) 0.7% (inactive)

(Q) // query growth inhibition value for entry CC(C)=CCc1c(OC(=O)c2c(C)cc(O)cc2O)cc(CO)c(CO)c1O
(A) 5.95% (inactive)

(Q) Which growth inhibition value is on record for CC1CC2(OC2C)C(=O)OC2CCN(C)C/C=C(/COC(=O)C1(C)O)C2=O (stereo not drawn) ?
(A) 4.85% (inactive)

(Q) Can you share its growth inhibition? I mean this compound: N#CC1(C#N)N[C@@H](c2ccsc2)[C@H]2C(=O)N(c3ccccc3)C(=O)[C@H]21
(A) 8.5% (inactive)

(Q) I would be grateful if you could share the reported growth inhibition for Cn1c2c(c3ccccc3c1=O)C(=O)c1ccccc1-2 .
(A) 26.1% (inactive)

(Q) Look up growth inhibition: C=CCn1c2c(c3ccccc3c1=O)C(=O)c1ccccc1-2
(A) 30.9% (inactive)

(Q) Name the recorded growth inhibition for N/N=C(\C(=O)Nc1ccc([N+](=O)[O-])cc1)C(C1=Nc2cc([N+](=O)[O-])ccc2NC1)[N+](=O)[O-] (stereo not drawn) .
(A) -41.5% (inactive)

(Q) Would you mind telling me what growth inhibition value was observed for CC(C)CCCC(C)[C@H]1CC[C@H]2[C@@H]3CC[C@H]4C[C@@H](CCC=C(c5cc(Cl)c(O)c(C(=O)O)c5)c5cc(Cl)c(O)c(C(=O)O)c5)CC[C@]4(C)[C@H]3CC[C@]12C (stereo partly drawn) (tested in a mixture with another compound) ?
(A) -8.4% (inactive)

====

- Experiment Description: NCI Yeast Anticancer Drug Screen. Data for the mec2-1 strain (AID 157)
- Condition Parameters: S. cerevisiae mec2-1 strain, at 50.0 µM, hits give high values
About 79,000 compounds went through this panel and 15% of them were active in at least one assay; those are over-represented in the sample as a whole. Calls of active or inactive are those of the source. No stated cut-off is given here; in the data, active means growth inhibition above about 70%; inactive means the rest.
What growth inhibition was measured for each of the following?

(Q) For the molecule shown here, CC(C)O/N=C/c1cc(NC(=S)OC(C)C)ccc1Cl , give the reported growth inhibition.
(A) -8.75% (inactive)

(Q) Fill blank: measured growth inhibition of the molecule COc1ccc(OC)c(N(CN2C(=O)CCC2C(=O)O)C(C)=O)c1 (stereo unspecified) is ____.
(A) 10.2% (inactive)

(Q) I have this molecule here, COc1cc([C@H]2OC[C@@H]3C(c4cc(OC)c5c(c4)OCO5)OC[C@H]23)cc(OC)c1OC (stereo partly specified) , and I need its recorded growth inhibition.
(A) -34.6% (inactive)

(Q) Please give the measured growth inhibition for this molecule: CCOc1ccc(N2C(=O)C3C4c5ccccc5C(c5ccccc54)C3C2=O)cc1 (stereo unspecified)
(A) 6.45% (inactive)

(Q) I have this molecule here, O=C1c2ccccc2C(=O)N1/N=C/c1cc(Cl)cc(Cl)c1O , and I need its recorded growth inhibition.
(A) -17.4% (inactive)

(Q) Data request, read-out growth inhibition, for COc1cc(/C=C2/SC(=S)NC2=O)cc(OC)c1OC
(A) -1.4% (inactive)

====

- Experiment Description: NCI Yeast Anticancer Drug Screen. Data for the mec2-1 strain (AID 157)
- Condition Parameters: S. cerevisiae mec2-1 strain, at 50.0 µM, hits give high values
This is part of a sample that, as a whole, favours compounds with a hit. Of some 79,000 tested, about 15% had one in any assay.
Value Kind: growth inhibition (%)
Only the number, expressed in %, is required.

(Q) Reported growth inhibition for COc1ccc(-c2coc3ccc4ccccc4c3c2=O)cc1OC : what is it?
(A) -15.1

(Q) What value of measured growth inhibition is listed for Cc1c(Cl)cccc1N1C(=O)CC(Sc2ccccc2N)C1=O (centres undefined) ?
(A) -13.9

(Q) Suppose we examine the compound Clc1ccc(C=NCCN=Cc2ccc(Cl)c(Cl)c2)cc1Cl ; what growth inhibition value has been reported?
(A) -20.3

(Q) Which growth inhibition value is on record for Nc1ccccc1CCc1ccccc1N ?
(A) -10.1

(Q) Which growth inhibition is listed for COC(=O)C1CCC(=O)N1CN(C(C)=O)c1cccc(O)c1 (centres undefined) ?
(A) 3.3

(Q) // returns reported growth inhibition for input Cc1ccc2oc(C)[n+](CCC(=O)O)c2c1
(A) 6.45

(Q) What does the data say about its growth inhibition? Entry: CC1CCN(c2ccc([N+](=O)[O-])cc2)CC1
(A) -29.9

(Q) # growth inhibition lookup, item OC(c1ccc(F)cc1)(c1cccs1)C1CC1 (centres undefined)
(A) -4.75

(Q) // query growth inhibition value for entry C=CCNC1=C2C[C@@H](C)C[C@@H](OC)[C@@H](OC(=O)CCCN)[C@H](C)/C=C(\C)[C@@H](OC(N)=O)[C@H](OC)/C=C\C=C(/C)C(=O)NC(=CC1=O)C2=O
(A) -0.55

(Q) Sample COC(=O)c1ccc2oc(=O)cc(C)c2c1O — what was its growth inhibition?
(A) -7.75

(Q) Need growth inhibition of COC(=O)C(C(=O)C(=O)NC1Nc2ccc(C)cc2S1)c1nc2ccc(Cl)cc2[nH]c1=O (centres undefined) , thanks.
(A) -12.3

(Q) Query (compound): CSc1nc(Br)nc2ncn(C3CC(Oc4ccc(C)cc4)C(COc4ccc(C)cc4)O3)c12 (centres undefined) ; field requested: growth inhibition
(A) 1.7

(Q) Field request: growth inhibition | item: O=[N+]([O-])c1cccc(C=Nc2cccc(C(F)(F)F)c2)c1
(A) 4.35

(Q) Would you mind telling me what growth inhibition value was observed for CCn1c2[n+](c3ccccc31)CCC2 ?
(A) -35.2

(Q) // growth inhibition lookup, key: CCCCCCCCOC(=O)C(=O)C(C#N)c1ccccc1 (centres undefined)
(A) 6.3

(Q) What does the data say about its growth inhibition? Entry: Cc1ccc(/C=N/Nc2nc3ccccc3s2)s1
(A) -4

(Q) Query: growth inhibition; subject: CSc1sc2cc([N+](=O)[O-])ccc2[n+]1C
(A) -7.6

(Q) Would you mind telling me what growth inhibition value was observed for C=CN1C(=O)N(C=C)C(C)(CC(C)C)C1=O (centres undefined) ?
(A) -5.55

(Q) Report growth inhibition for C(=N\N=C\c1c[nH]c2ccccc12)/c1c[nH]c2ccccc12 please.
(A) -21.9

(Q) Please look up its growth inhibition: Cc1nc2c(Cl)cc(Cl)c(Cl)c2s1
(A) 5.15

(Q) Look at this compound and give its reported growth inhibition. O=C(NC1=NC2C=CC([N+](=O)[O-])=CC2S1)C(=O)Nn1c(=S)[nH]c2ccccc2c1=O (centres undefined)
(A) -14.9

(Q) Quick one: growth inhibition for C=C1C2CCC3C4(C)CCCC(C)(C(=O)O)C4CCC3(C2)C1OC(=O)/C(C)=C/C (centres undefined) ?
(A) 4.85

(Q) Could you share which growth inhibition value was measured for N#CC(=S)Nc1ccc(F)cc1 ?
(A) 26.1

(Q) Need growth inhibition, item CCCCN1CCNCC1
(A) -1.95
